Target: human glucagon receptor (human) (UniProt P47871)
Sequence (P47871 26-477): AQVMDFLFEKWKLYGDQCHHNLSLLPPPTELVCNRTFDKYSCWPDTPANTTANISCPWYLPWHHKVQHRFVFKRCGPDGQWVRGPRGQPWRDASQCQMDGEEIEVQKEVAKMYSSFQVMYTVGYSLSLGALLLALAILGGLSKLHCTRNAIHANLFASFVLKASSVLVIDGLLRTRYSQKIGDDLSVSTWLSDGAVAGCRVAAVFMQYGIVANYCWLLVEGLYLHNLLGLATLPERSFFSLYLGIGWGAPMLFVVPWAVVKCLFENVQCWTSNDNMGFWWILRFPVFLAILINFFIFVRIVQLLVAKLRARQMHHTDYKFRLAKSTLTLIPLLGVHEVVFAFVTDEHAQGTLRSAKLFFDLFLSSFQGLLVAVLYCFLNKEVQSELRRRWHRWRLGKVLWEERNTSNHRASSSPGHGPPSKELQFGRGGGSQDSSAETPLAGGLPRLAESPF
Test: cell-based or functional assay
Starred links: 1 amine or outer side, 2 acyl side, 3 side chain; linkers in the order of their positions; H or OH if unused. Non-standard residues stand in square brackets, D forms with d. Groups on a side chain read outwards from the residue. No end group written: not given here. *: point of attachment. C18 diacid = O=C(O)CCCCCCCCCCCCCCCCC(=O)*; γGlu = O=C(O)[C@H](CCC(=O)[*:2])N[*:1]; αMeL = CC(C)C[C@](C)(N)C(=O)O; Dap = NC[C@H](N)C(=O)O; AEEA = NCCOCCOCC(=O)O; Aib = CC(C)(N)C(=O)O
This listing pairs binders with measured cAMP Rel EC50, nM (in the presence of 1% HSA).
# output: bare number, implied unit nM

binder="YXQGTFTSDFSXXLDKKAQXAFIEYLLEXGPSSGAPPPSEG (synthetic construct; SITE 2: note = 2-Aminoisobutyric Acid; SITE 12: note = L-ornithine; SITE 13: note = alpha-methyl-leucine; SITE 17: note = Lysine is chemically modified through conjugation of the epsilon-amino group of the Lysine side chain with (2-[2-(2-Amino-ethoxy)-ethoxy]-acetyl)-(gamma-Glu)) [Example 61]" reading_unit=nM endpoint_value=1310
binder="YXQGTFTSDFSXXLDKKAQXAFIEYLLEXGPSSGAPPPSGS (synthetic construct; SITE 2: note = 2-Aminoisobutyric Acid; SITE 12: note = L-ornithine; SITE 13: note = alpha-methyl-leucine; SITE 17: note = Lysine is chemically modified through conjugation of the epsilon-amino group of the Lysine side chain with (2-[2-(2-Amino-ethoxy)-ethoxy]-acetyl)2-(gamma-Glu)) [Example 75]" reading_unit=nM endpoint_value=1040
binder="YXQGTFTSDFSXXLDKKAQXAFIEYLLEGGPSSGAPPPSGE (synthetic construct; SITE 2: note = 2-Aminoisobutyric Acid; SITE 12: note = L-ornithine; SITE 13: note = alpha-methyl-leucine; SITE 17: note = Lysine is chemically modified through conjugation of the epsilon-amino group of the Lysine side chain with (2-[2-(2-Amino-ethoxy)-ethoxy]-acetyl)2-(gamma-Glu)) [Example 107]" reading_unit=nM endpoint_value=1690
binder="YXQGTFTSDXSRXLDKKAQXAFIEYLLAGGPSSGAPPPSGE (synthetic construct; SITE 2: note = 2-Aminoisobutyric Acid; SITE 10: note = 3-(4-Pyridyl)-L-alanine; SITE 13: note = alpha-methyl-leucine; SITE 17: note = Lysine is chemically modified through conjugation of the epsilon-amino group of the Lysine side chain with (2-[2-(2-Amino-ethoxy)-ethoxy]-acetyl)) [Example 113]" reading_unit=nM endpoint_value=2090
binder="YXQGTFTSDFSXXLDKKAQXAFIEYLLAGGPSSGAPPPSGEX (synthetic construct; SITE 2: note = 2-Aminoisobutyric Acid; SITE 12: note = L-ornithine; SITE 13: note = alpha-methyl-leucine; SITE 17: note = Lysine is chemically modified through conjugation of the epsilon-amino group of the Lysine side chain with (2-[2-(2-Amino-ethoxy)-ethoxy]-acetyl)-(gamma-Glu)) [Example 91]" reading_unit=nM endpoint_value=1200
binder="YXQGTFTSDFSXXLDKKAQXAFIEYLLEGGPSSGAPPPEGS (synthetic construct; SITE 2: note = 2-Aminoisobutyric Acid; SITE 12: note = L-ornithine; SITE 13: note = alpha-methyl-leucine; SITE 17: note = Lysine is chemically modified through conjugation of the epsilon-amino group of the Lysine side chain with (2-[2-(2-Amino-ethoxy)-ethoxy]-acetyl)-(gamma-Glu)) [Example 130]" reading_unit=nM endpoint_value=1080
binder="YXQGTFTSDFSXXLDKKAQXAFIEYLLAGGTSSGEPPPSGE (synthetic construct; SITE 2: note = 2-Aminoisobutyric Acid; SITE 12: note = L-ornithine; SITE 13: note = alpha-methyl-leucine; SITE 17: note = Lysine is chemically modified through conjugation of the epsilon-amino group of the Lysine side chain with (2-[2-(2-Amino-ethoxy)-ethoxy]-acetyl)-(gamma-Glu)) [Example 106]" reading_unit=nM endpoint_value=2000
binder="YXQGTFTSDFSXXLDKKAQXAFIEWLLEGGPSSGAPPPSGS (synthetic construct; SITE 2: note = 2-Aminoisobutyric Acid; SITE 12: note = L-ornithine; SITE 13: note = alpha-methyl-leucine; SITE 17: note = Lysine is chemically modified through conjugation of the epsilon-amino group of the Lysine side chain with (2-[2-(2-Amino-ethoxy)-ethoxy]-acetyl)-(gamma-Glu)) [Example 78]" reading_unit=nM endpoint_value=2640

Quick check: cAMP Rel EC50, nM (in the presence of 1% HSA) of YXQGTFTSDFSXXLDKKAQXAFIEYLLEXGPSSGEPPPGEG (synthetic construct; SITE 2: note = 2-Aminoisobutyric Acid; SITE 12: note = L-ornithine; SITE 13: note = alpha-methyl-leucine; SITE 17: note = Lysine is chemically modified through conjugation of the epsilon-amino group of the Lysine side chain with (2-[2-(2-Amino-ethoxy)-ethoxy]-acetyl)2-(gamma-Glu)) [Example 69] ?
387

Quick check: cAMP Rel EC50, nM (in the presence of 1% HSA) of YXQGTFTSDFSRXLDKKAQXAFIEYLLEXGPSSGAPPPSGS (synthetic construct; SITE 2: note = 2-Aminoisobutyric Acid; SITE 13: note = alpha-methyl-leucine; SITE 17: note = Lysine is chemically modified through conjugation of the epsilon-amino group of the Lysine side chain with (2-[2-(2-Amino-ethoxy)-ethoxy]-acetyl)2-(gamma-Glu)-CO-(CH2 )16-CO2H; SITE 20:) [Example 80] ?
1190

Quick check: cAMP Rel EC50, nM (in the presence of 1% HSA) of Y[Aib]QGTFTSDFS[Dap][αMeL]LDKK([AEEA-γGlu-C18 diacid])AQ[Aib]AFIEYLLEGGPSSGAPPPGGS-NH2 (ends and bridges not checked) [Example 68] ?
1160

Quick check: cAMP Rel EC50, nM (in the presence of 1% HSA) of YXQGTFTSDFSXXLDKKAQXAFIEYLLEXGPSSGAPPPSGE (synthetic construct; SITE 2: note = 2-Aminoisobutyric Acid; SITE 12: note = L-ornithine; SITE 13: note = alpha-methyl-leucine; SITE 17: note = Lysine is chemically modified through conjugation of the epsilon-amino group of the Lysine side chain with (2-[2-(2-Amino-ethoxy)-ethoxy]-acetyl)-(gamma-Glu)) [Example 110] ?
627

Quick check: cAMP Rel EC50, nM (in the presence of 1% HSA) of YXQGTFTSDFSXXLDKKAQXAFIEYLLAGGPSSGEPPPSGE (synthetic construct; SITE 2: note = 2-Aminoisobutyric Acid; SITE 12: note = L-ornithine; SITE 13: note = alpha-methyl-leucine; SITE 17: note = Lysine is chemically modified through conjugation of the epsilon-amino group of the Lysine side chain with (2-[2-(2-Amino-ethoxy)-ethoxy]-acetyl)-(gamma-Glu)) [Example 97] ?
1270

Quick check: cAMP Rel EC50, nM (in the presence of 1% HSA) of YXQGTFTSDFSKXLDKKAQXQFIEYLLEGGPSSGAPPPSEG (synthetic construct; SITE 2: note = 2-Aminoisobutyric Acid; SITE 13: note = alpha-methyl-leucine; SITE 17: note = Lysine is chemically modified through conjugation of the epsilon-amino group of the Lysine side chain with (2-[2-(2-Amino-ethoxy)-ethoxy]-acetyl)-(gamma-Glu)-CO-(CH2) 16-CO2H; SITE 20: n) [Example 51] ?
856

src = patent US20240270821A1
